Recorded below: Log AC50 (M), system Vero cells.
Answers are plain numbers, in M.

Known results for molecules:
C/C=C(\C)C(=O)O[C@H]1CC2C(=C1C)[C@H]1OC(=O)[C@](C)(O)[C@]1(O)[C@H](OC(=O)CCC)C[C@@]2(C)OC(C)=O (some centres unmarked) [NCGC00169033-03]	-5.6408
COc1cc(C(C)C)c2c(c1)[S+](=O)([O-])N(COc1cc(=O)n3cccc(OCCN4CCCCC4)c3n1)C2=O [NCGC00167751-03]	-4.6327
CS[C@H]1SC[C@@H]2C(=O)N(C)[C@H](C(C)C)C(=O)OC[C@H](NC(=O)c3cnc4ccccc4n3)C(=O)N[C@H](C)C(=O)N(C)[C@H]1C(=O)N(C)[C@H](C(C)C)C(=O)OC[C@H](NC(=O)c1cnc3ccccc3n1)C(=O)N[C@H](C)C(=O)N2C [NCGC00163548-01]	-5.7408
COc1c(C)cnc(Cn2cnc3c(Cl)nc(N)nc32)c1C [NCGC00247877-01]	-6.7327

Required: Log AC50 (M), one value per molecule below.
1. O=C(NCc1ccccc1)c1csc(Nc2ccncn2)n1 [NCGC00187983-01]
2. CC1=C(CO)C(=O)O[C@@H]([C@@H](C)[C@H]2CC[C@H]3[C@@H]4C[C@H]5O[C@]56[C@@H](O)C=CC(=O)[C@]6(C)[C@H]4CC[C@]23C)C1 [NCGC00180796-02]
3. CC(=O)O[C@H]1C(=O)[C@@]2(C)[C@H]([C@H](OC(=O)c3ccccc3)[C@]3(O)C[C@H](OC(=O)[C@H](O)[C@@H](NC(=O)c4ccccc4)c4ccccc4)C(C)=C1C3(C)C)[C@]1(OC(C)=O)CO[C@@H]1C[C@@H]2O [NCGC00164367-10]
4. C=C(C)[C@H]1CCC(C)=C[C@@H]1c1c(O)cc(CCCCC)cc1O [NCGC00385066-01]

Outgoing:
[-4.8327, -4.9908, -6.8582, -4.4327]

Please look at the items below and tell me Log AC50 (M) for each one, in order.
1. CC(=O)OC[C@]12[C@H](OC(C)=O)C(=O)[C@@H]3[C@@H](O)[C@@]14O[C@@]3(C)COC(=O)c1cccnc1[C@@H](C)[C@H](C)C(=O)O[C@@H]([C@H](OC(C)=O)[C@@H]2OC(C)=O)[C@]4(C)O [NCGC00385298-01]
2. COC1C(O)C(OC2CCC3(C)C(CCC4C3CCC3(C)C(C5=CC(=O)OC5)CCC43O)C2)OC(C)C1OC1OC(COC2OC(CO)C(O)C(O)C2O)C(O)C(O)C1O (centres unmarked) [NCGC00380220-01]
3. Nc1nc(Nc2ccc([S+](N)(=O)[O-])cc2)nn1C(=O)c1c(F)cccc1F [NCGC00263151-01]

Outgoing:
[-5.0083, -5.8908, -4.7827]

====

tested on: wild-type ZIKV (Ugandan MR766 strain) in Vero cells; test: ZIKV cytopathic effect (CPE) inhibition qHTS assay, CellTiter-Glo readout; format: cell-based, Zika virus; conditions: Zika virus, Vero, read-out: Log AC50 (M) (converted)
value_type: AC50 (M)
One number for each entry, in M.

Look over these answered cases.
C=C(F)c1sc(CNCCCNc2cc(=O)c3ccccc3[nH]2)c(C)c1Br	2.06e-05
C[C@H]1O[C@@H](O[C@H]2[C@@H](O)C[C@H](O[C@H]3[C@@H](O)C[C@H](O[C@H]4CC[C@@]5(C)[C@H](CC[C@@H]6[C@@H]5C[C@@H](O)[C@]5(C)[C@@H](C7=CC(=O)OC7)CC[C@]65O)C4)O[C@@H]3C)O[C@@H]2C)C[C@H](O)[C@@H]1O	8.2e-06
OCCCNc1cc(-c2ccnc(Nc3cccc(Cl)c3)n2)ccn1	6.51e-05
C/C=C(/C)C(=O)O[C@H]1C=C(CO)C(=O)[C@H](OC(=O)/C(C)=C/CO)[C@H]1C(C)C	5.08e-05
CC(C)C(=O)c1cn(CC(=O)COc2ccc(Oc3ccccc3)cc2)c2ccc(C(=O)O)cc12	1.3e-05
C=C1C(=O)O[C@H]2CC(=C)[C@H]3CC[C@@](C)(O)[C@@H]3CC12 (some centres unmarked)	7.31e-05

Provide each entry's AC50 from the list below.
1. O=C1N(CC2CCCCN2)CCN1c1ccccc1 (centres unmarked)
2. CC1=CC2/C=C(\C)CCC(O)C3OC(C)(C)OC3CC(=O)OC23C(=O)NC(CC(C)C)C3C1C (centres unmarked)
3. O=S(=O)(c1ccc(S(=O)(=O)n2cnc3ccccc32)cc1)N1CCCCCC1
4. CC1CCC2C(=CCC(O)C2(C)C)C1(C)Cc1c(O)cc(CO)c(C=O)c1O (centres unmarked)
5. C/C(=N\NC(=N)N)c1cc(NC(=O)CCCCCCCCC(=O)Nc2cc(/C(C)=N/NC(=N)N)cc(/C(C)=N/NC(=N)N)c2)cc(/C(C)=N/NC(=N)N)c1
6. COc1cc2c(cc1O)C1(Cc3ccc4c(c3C1O)OCO4)[N+](C)([O-])CC2 (centres unmarked)
7. CC(=O)CC1CCC(C(C)C(=O)OCC(O)CO)O1 (centres unmarked)
8. C=C(C)[C@@]12O[C@@H]1[C@@]1(C)C(=CC2=O)CC[C@@H](OC(C)=O)[C@@H]1C

Outgoing:
1. 2.91e-05
2. 1.42e-05
3. 3.17e-05
4. 4.04e-05
5. 5.8e-05
6. 6.4e-07
7. 2.91e-05
8. 4.61e-06
